Attribution: the supplement of paper PMC10883282

# Test system: RD-ES
# Test method notes: relative viability vs DMSO control (72 h) (fraction); higher = more viable cells
# Condition context: 10 µM
Grouping key: relative viability. Bins: range 1 (below 0.1), range 2 (0.1 to below 0.9), range 3 (0.9 or more)

Past entries and their recorded results:
Lab log: CNC(=O)c1cccc2cc(Oc3ccnc4cc(OCC5(N)CC5)c(OC)cc34)ccc12 [Lucitanib] — assign relative viability category
range 2

Assign a bin to Cc1c2oc3c(C)ccc(C(=O)N[C@@H]4C(=O)N[C@H](C(C)C)C(=O)N5CCC[C@H]5C(=O)N(C)CC(=O)N(C)[C@@H](C(C)C)C(=O)O[C@@H]4C)c3nc-2c(C(=O)N[C@@H]2C(=O)N[C@H](C(C)C)C(=O)N3CCC[C@H]3C(=O)N(C)CC(=O)N(C)[C@@H](C(C)C)C(=O)O[C@@H]2C)c(N)c1=O [Dactinomycin]
range 1

Others:
Which category does the recorded relative viability put COc1cc2ncnc(Nc3ccc(F)c(Cl)c3)c2cc1OCCCN1CCOCC1 [Gefitinib] in?
range 2

State the class of the compound shown: CO[C@H]1C[C@@H]2CC[C@@H](C)[C@@](O)(O2)C(=O)C(=O)N2CCCC[C@H]2C(=O)O[C@H]([C@H](C)C[C@@H]2CC[C@@H](OC(=O)C(C)(CO)CO)[C@H](OC)C2)CC(=O)[C@H](C)/C=C(\C)[C@@H](O)[C@@H](OC)C(=O)[C@H](C)C[C@H](C)/C=C/C=C/C=C/1C [Temsirolimus]
range 2

====

# System: SW982
# Test method notes: standardised AUC of viability dose-response curve (72 h) (fraction (0-1)); higher = less growth inhibition (more resistant)
Endpoint label: standardised AUC

Reference set (3 entries):
standardised AUC of CN(C)CCCOc1ccc(-c2ccc3ncc4c(c3c2)n(C2CCOCC2)c(=O)n4C)cn1 on SW982?
0.752

Provide value of standardised AUC for this record tested with SW982: Cc1c2oc3c(C)ccc(C(=O)N[C@@H]4C(=O)N[C@H](C(C)C)C(=O)N5CCC[C@H]5C(=O)N(C)CC(=O)N(C)[C@@H](C(C)C)C(=O)O[C@@H]4C)c3nc-2c(C(=O)N[C@@H]2C(=O)N[C@H](C(C)C)C(=O)N3CCC[C@H]3C(=O)N(C)CC(=O)N(C)[C@@H](C(C)C)C(=O)O[C@@H]2C)c(N)c1=O
0.396

Item: CNC(=O)c1c(C)oc2cc(Oc3ncnc4cc(OC)c(OC)cc34)ccc12 Test system: SW982 Read-out: standardised AUC Value: ?
0.986

More entries:
# get_value(readout= standardised AUC, system= SW982) for COc1cc(N2CCC(N3CCN(C)CC3)CC2)ccc1Nc1ncc(Cl)c(Nc2ccccc2P(C)(C)=O)n1
0.649

Give the reported standardised AUC for Cc1cc2c(F)c(Oc3ncnn4cc(OC[C@@H](C)OC(=O)[C@H](C)N)c(C)c34)ccc2[nH]1 [BRIVANIB ALANINATE] (system: SW982).
1

What reported standardised AUC corresponds to Cc1cc(F)c(C(=O)Nc2cccc(-c3nncn3C(C)C)n2)cc1-n1cnc(C2CC2)c1 on SW982?
1

What measured standardised AUC is associated with C#Cc1cccc(Nc2ncnc3cc4c(cc23)OCCOCCOCCO4)c1 on SW982?
0.989

====

Recorded relative viability by entry
# Test system: SK-ES-1
# Test method notes: relative viability vs DMSO control (72 h) (fraction); higher = more viable cells
# Condition context: 0.00152 µM
In your answer, state the number alone without any accompanying words.

Consider the reported relative viability for these compounds:
I'd like to know its relative viability. The compound in question is COc1cc(N2CCC(N3CCN(C)CC3)CC2)ccc1Nc1ncc(Cl)c(Nc2ccccc2P(C)(C)=O)n1 [Brigatinib]
0.971

Please give the measured relative viability for this compound: CCS(=O)(=O)N1CC(CC#N)(n2cc(-c3ncnc4[nH]ccc34)cn2)C1 [Baricitinib]
1

Which relative viability value belongs to O=C(c1ccc(F)c(F)c1Nc1ccc(I)cc1F)N1CC(O)([C@@H]2CCCCN2)C1 [Cobimetinib] ?
1.04

Would you kindly share the measured relative viability for CS(=O)(=O)CCNCc1ccc(-c2ccc3ncnc(Nc4ccc(OCc5cccc(F)c5)c(Cl)c4)c3c2)o1 [Lapatinib] ?
1.02

Given C#Cc1cccc(Nc2ncnc3cc4c(cc23)OCCOCCOCCO4)c1 [Icotinib] , state its recorded relative viability.
1.06

---
Name the reported relative viability value associated with the compound O=S(=O)(c1cccc2c(O)nccc12)N1CCCNCC1 [Hydroxyfasudil]
1.06

Give its relative viability value. Item: CNC(=O)c1cccc2cc(Oc3ccnc4cc(OCC5(N)CC5)c(OC)cc34)ccc12 [Lucitanib]
1.09

Any idea what its relative viability is? The compound is Cc1cc(F)c(C(=O)Nc2cccc(-c3nncn3C(C)C)n2)cc1-n1cnc(C2CC2)c1 [Selonsertib]
1.03

Which value of relative viability has been reported for Cc1[nH]c(/C=C2\C(=O)Nc3ccccc32)c(C)c1CCC(=O)O [Orantinib] in the records?
1.06

====

Quick reference: relative viability of the listed items.
# System: SW982
# Test method notes: relative viability vs DMSO control (72 h) (fraction); higher = more viable cells
# Condition context: 0.01372 µM
Please state the value as a number alone, without comment.

Known results for molecules:
Endpoint output: relative viability of COC(=O)c1ccc2c(c1)NC(=O)/C2=C(\Nc1ccc(N(C)C(=O)CN2CCN(C)CC2)cc1)c1ccccc1 [Nintedanib] . Value?
0.975

Find the recorded relative viability belonging to C#Cc1cccc(Nc2ncnc3cc4c(cc23)OCCOCCOCCO4)c1 [Icotinib] and report it.
1.05

Looking for the measured relative viability of CS(=O)(=O)CCNCc1ccc(-c2ccc3ncnc(Nc4ccc(OCc5cccc(F)c5)c(Cl)c4)c3c2)o1 [Lapatinib] , can you help?
1.05

Okay, next one:
Looking for the measured relative viability of CN(C)CCCOc1ccc(-c2ccc3ncc4c(c3c2)n(C2CCOCC2)c(=O)n4C)cn1 [AZD-0156] , can you help?
1.03

====

# System: SW982
# Test method notes: relative viability vs DMSO control (72 h) (fraction); higher = more viable cells
# Condition context: 0.3704 µM
Endpoint label: relative viability

These recorded examples may help you get a feel for the data.
# returns recorded relative viability (system: SW982) for O=C(c1ccc(F)c(F)c1Nc1ccc(I)cc1F)N1CC(O)([C@@H]2CCCCN2)C1 [Cobimetinib]
0.804

Return relative viability measured with SW982 given this molecule: O=C1CCc2c(Oc3ccc4c(c3)[C@@H]3[C@H](O4)[C@H]3c3nc4cc(C(F)(F)F)ccc4[nH]3)ccnc2N1 [Lifirafenib]
1.03

Which measured relative viability belongs to C[C@@H]1CN(C(=O)c2ccc(NC(=O)c3cc(O[C@H](C)c4c(Cl)ccc(F)c4Cl)c(N)nn3)cc2)C[C@H](C)N1 [Ensartinib] , tested on SW982?
0.855

Test system SW982; read-out relative viability; what value for CN(C)CCCOc1ccc(-c2ccc3ncc4c(c3c2)n(C2CCOCC2)c(=O)n4C)cn1 [AZD-0156] ?
0.619

Fill in the recorded relative viability for this molecule, with SW982 as test system: Cc1cc(F)c(C(=O)Nc2cccc(-c3nncn3C(C)C)n2)cc1-n1cnc(C2CC2)c1 [Selonsertib]
1.09

Further cases:
# value lookup — system SW982, readout relative viability, item CCS(=O)(=O)N1CC(CC#N)(n2cc(-c3ncnc4[nH]ccc34)cn2)C1 [Baricitinib]
0.993

Form field: relative viability recorded for COc1cc2ncnc(Nc3ccc(F)c(Cl)c3)c2cc1OCCCN1CCOCC1 [Gefitinib] with SW982 (enter value)
0.989

State its relative viability on SW982: COc1cc(Nc2ncc3c(n2)-c2ccc(Cl)cc2C(c2c(F)cccc2OC)=NC3)ccc1C(=O)O [Alisertib]
0.464

What relative viability appears in the records for this molecule with SW982? CN(C)C(=O)c1cc2cnc(Nc3ccc(N4CCNCC4)cn3)nc2n1C1CCCC1 [Ribociclib]
1.02

Recall the recorded relative viability for CO[C@H]1C[C@@H]2CC[C@@H](C)[C@@](O)(O2)C(=O)C(=O)N2CCCC[C@H]2C(=O)O[C@H]([C@H](C)C[C@@H]2CC[C@@H](OC(=O)C(C)(CO)CO)[C@H](OC)C2)CC(=O)[C@H](C)/C=C(\C)[C@@H](O)[C@@H](OC)C(=O)[C@H](C)C[C@H](C)/C=C/C=C/C=C/1C [Temsirolimus] with SW982 and state it.
0.595

====

# reported relative viability; entries follow
# Tested on: SW872
# Test method notes: relative viability vs DMSO control (72 h) (fraction); higher = more viable cells
# Condition context: 1.111 µM
Enter the number alone.

What value of measured relative viability is listed for Cn1cnc2c(F)c(Nc3ccc(Br)cc3Cl)c(C(=O)NOCCO)cc21 [Selumetinib] ?
0.58

Which measured relative viability value corresponds to COc1cc(Nc2ncc3c(n2)-c2ccc(Cl)cc2C(c2c(F)cccc2OC)=NC3)ccc1C(=O)O [Alisertib] ?
0.759

Query: relative viability; subject: C[C@@H]1CN(C(=O)c2ccc(NC(=O)c3cc(O[C@H](C)c4c(Cl)ccc(F)c4Cl)c(N)nn3)cc2)C[C@H](C)N1 [Ensartinib]
0.835

Reported relative viability for CNC(=O)c1cccc2cc(Oc3ccnc4cc(OCC5(N)CC5)c(OC)cc34)ccc12 [Lucitanib] : what is it?
1.07

Entry under review: CN(C)C(=O)c1cc2cnc(Nc3ccc(N4CCNCC4)cn3)nc2n1C1CCCC1 [Ribociclib] . Reported relative viability?
0.946

Query: relative viability; subject: Cc1c2oc3c(C)ccc(C(=O)N[C@@H]4C(=O)N[C@H](C(C)C)C(=O)N5CCC[C@H]5C(=O)N(C)CC(=O)N(C)[C@@H](C(C)C)C(=O)O[C@@H]4C)c3nc-2c(C(=O)N[C@@H]2C(=O)N[C@H](C(C)C)C(=O)N3CCC[C@H]3C(=O)N(C)CC(=O)N(C)[C@@H](C(C)C)C(=O)O[C@@H]2C)c(N)c1=O [Dactinomycin]
0.189

Next:
Could you tell me which relative viability is on file for O=C(c1ccc(F)c(F)c1Nc1ccc(I)cc1F)N1CC(O)([C@@H]2CCCCN2)C1 [Cobimetinib] ?
0.498
